Assay: Color stability of DragoCalm before and after Oxipres treatment (L*a*b* system, Δb*)
Format: physicochemical
Design: key: L*a*b* Δb* = b* change before vs after Oxipres; higher = more discolored
Conditions: color difference before/after Oxipres treatment, additive 0.10 %
Mark Condition met only when Δb* stays strictly below 8. Values equal to the cut-off are Condition not met.

# input Given O=C(O)CC(O)C(=O)O (centres unmarked) , is recorded Δb* strictly lower than 8?
# output Condition not met

# input Given O=C([O-])CN(CCN(CC(=O)[O-])CC(=O)O)CC(=O)O.[Na+].[Na+] [Disodium EDTA] , is recorded Δb* strictly lower than 8?
# output Condition met

# input Given O=C(O)C(O)C(O)C(=O)O (centres unmarked) , is recorded Δb* strictly lower than 8?
# output Condition not met

# input Given CC(=O)c1ccc(O)cc1 [4-Hydroxyacetophenone] , is recorded Δb* strictly lower than 8?
# output Condition met

# input Given CC(O)C(=O)O (centres unmarked) , is recorded Δb* strictly lower than 8?
# output Condition not met

====

Listing of recorded Δb* by entry.
Test: Color stability of DragoCalm before and after Oxipres treatment (L*a*b* system, Δb*)
Type: physicochemical
Design: key: L*a*b* Δb* = b* change before vs after Oxipres; higher = more discolored
Settings: color difference before/after Oxipres treatment, additive 0.10 %
// no unit, no text: just the number

Known results for compounds:
{"COMPOUND": "O=C([O-])CC[C@@H](C(=O)[O-])N(CC(=O)[O-])CC(=O)[O-].[Na+].[Na+].[Na+].[Na+] [Tetrasodium Glutamate Diacetate]", "Δb*": 7.8}
{"COMPOUND": "O=P(O)(O)O[C@H]1[C@H](OP(=O)(O)O)[C@@H](OP(=O)(O)O)[C@H](OP(=O)(O)O)[C@@H](OP(=O)(O)O)[C@H]1OP(=O)(O)O [Phytic Acid]", "Δb*": 8.2}

# input Identify the reported Δb* for the following entry. O=C(O)CC(O)(CC(=O)O)C(=O)O [Citric acid]
# output 8.2
